Tested on: Colon cancer organoid
procedure summary: Identification of compartment-specific drug sensitivities in O20 CRC organoid-stroma F20 CAF co-cultures. Organoid is transduced with Lucferase2-P2A-EGFP lentivirus, fibroblast with Renilla-dsRed lentivirus. Dual-Glo Luciferase assay is used to report viability data.
Type: functional, Homo sapiens
Set-up: dose or concentration left out as unconfirmed
recorded conditions: Transduced with Renilla-dsRed lentivirus
Listed here are molecules together with their documented Cell Viability.

Example entries begin here.
{"molecule": "OCCn1cc(-c2cnc3nnn(Cc4ccc5ncccc5c4)c3n2)cn1 [PF-04217903]", "Cell Viability": "97.2338%"}
{"molecule": "COc1ccc2c(O[C@@H]3C[C@H]4C(=O)N[C@]5(C(=O)O)CC5/C=C\\CCCCC[C@H](NC(=O)OC5CCCC5)C(=O)N4C3)cc(-c3csc(NC(=O)C(C)C)n3)nc2c1C (some centres not stated) [BI 1230]", "Cell Viability": "162.279%"}
{"molecule": "C=CC(=O)Nc1ccc2[nH]c(=O)n(C3CCN(C(=O)c4ccc(-c5nc6cc[nH]c(=O)c6cc5-c5ccccc5)cc4)CC3)c2c1", "Cell Viability": "80.5582%"}
{"molecule": "CN1CCN(C(=O)C(C)(C)c2ccc(C(=O)Nc3cn4cc(-c5ccncc5)ccc4n3)cc2)CC1 [T3-CLK]", "Cell Viability": "291.942%"}
{"molecule": "CN(C)C(=O)Cn1cc(-c2ccc(-c3nnc4ccccn34)cc2)cn1", "Cell Viability": "52.6743%"}

Return reported Cell Viability; argument: O=C(NCCN1CCOCC1)c1ccc2c(c1)C(=O)c1ccc(Nc3ccc(F)c(NC(=O)c4ccccc4)c3)cc1CC2 [FS-694]
119.038%

For the molecule shown here, Cc1nc(C2CCN(C(=O)c3ccc(OC(F)(F)F)cc3N)CC2)c2ncc(N3CCN(C)CC3)cc2n1 [BAY-693] , give the reported Cell Viability.
129.276%

====

Tested on: Colon cancer organoid
procedure summary: Identification of compartment-specific drug sensitivities in O20 CRC organoid-stroma F20 CAF co-cultures. Organoid is transduced with Lucferase2-P2A-EGFP lentivirus, fibroblast with Renilla-dsRed lentivirus. Dual-Glo Luciferase assay is used to report viability data.
Type: functional, Homo sapiens
Design: dose or concentration left out as unconfirmed
recorded conditions: Transduced with Lucferase2-P2A-EGFP lentivirus
experimental readout: Cell Viability (%)
Lab book: enter the figure in %, no units written.

Answered examples (5):
{"compound": "O=C(O)c1ccc(-c2c[nH]c3ncc(-c4ccccc4)cc23)cc1C1CCCC1", "number": 93.9419}
{"compound": "CC(C)Oc1ccc(-c2c[nH]cc2CN(C)CCO)cc1", "number": 114.429}
{"compound": "CN1CCN(Cc2cc(NC(=O)c3ccc4c(c3)CN(c3ccccc3)CC4)cc(C(F)(F)F)c2)CC1", "number": 90.0307}
{"compound": "CC(C)(C)OC(=O)N1CCCC1CNC1CCC(c2cc(F)ccc2F)(S(=O)(=O)c2ccc(Cl)cc2)CC1 (configuration not stated)", "number": 93.8933}
{"compound": "CCC(=O)N1CCN(c2ccc(-n3c(=O)ccc4cnc5ccc(-c6cnc7ccccc7c6)cc5c43)cc2C(F)(F)F)CC1", "number": 7.451}

Fill in the blank: the reported Cell Viability of Cn1cc(C2=C(c3cn(C4CCN(Cc5ccccn5)CC4)c4ccccc34)C(=O)NC2=O)c2ccccc21 is ____.
54.6044

I have this compound here, COc1ccc(Oc2cc(NCCC(F)(F)F)c3ncc(-c4ccc(C(=O)NC5CC5)c(C)c4)n3n2)c(F)c1F , and I need its recorded Cell Viability.
10.0806
